- System: SF-539 CNS
- Method: NCI-60 one-dose screen, 48 h
- Settings: 10 µM unless noted
- Method: Cells are grown in 96 well plates and exposed to the test compound for 48 hours. Compounds are tested at a single concentration, which is 10^-5 M for most compounds. The reported endpoint is percent growth (GI% or GIPRCNT), where numbers from 0 - 100% represent growth inhibition, and numbers from -100% - 0 represent cell death. For example, a value of 40 represents 60% growth inhibition. A value of 0 means no net growth occurred over the course of the experiment. […]
Compounds without any hit were thinned out: in the full panel of roughly 83,000, 20% have a hit. The source made the active and inactive calls. How the source made its calls: active means growth percent below 10; inactive means the rest.
Outcomes: active, inactive

>>> category_label("COc1ccc(-c2nc3ccc(-c4nnc(SCC(=O)Nc5ccc(C(C)=O)cc5)o4)cc3[nH]2)cc1")
"inactive"
>>> category_label("Cc1nc2cnc(N)c(C#Cc3cncc(C(=O)Nc4ccc(Cl)c(C(F)(F)F)c4)c3)c2nc1C")
"active"
>>> category_label("N/C(=N\\c1nc2c(Br)cccc2s1)C(Br)Br")
"active"
>>> category_label("COc1ccc(-c2csc(N/N=C/c3c(-c4ccc(S(C)(=O)=O)cc4)nc4ccccn34)n2)cc1")
"inactive"
>>> category_label("N#Cc1nc(-c2ccccc2)oc1N1CCC(CO)C1 (configuration not stated)")
"inactive"
>>> category_label("N=C1CC(=O)NN1C(=O)CSc1nc2sc3c(c2c(=O)n1-c1ccc(Cl)cc1)CCCC3")
"inactive"
>>> category_label("COc1ccc(/C=N/Nc2ccnc3cc(Cl)ccc23)cc1Cl")
"active"
>>> category_label("CN(C)CCCNc1c2ccc(Cl)cc2nc2c1oc1ccccc12")
"active"
>>> category_label("O=C1c2c(c3c4cc(Br)ccc4[nH]c3c3ccc4ccccc4c23)C(=O)N1CCO")
"inactive"
>>> category_label("Nc1nc(N)c2c(n1)NC(c1ccc(F)cc1)CC(c1ccc(Nc3nc(NCCO)nc(Nc4ccc(Cl)cc4)n3)cc1)=N2 (configuration not stated)")
"active"
>>> category_label("O=C(O)CCCCCN1C(=O)/C(=C/c2ccc(O)c(O)c2)SC1=S")
"inactive"
>>> category_label("Cc1cccc2sc(/N=C(\\N)C(Br)Br)nc12")
"active"
>>> category_label("CC(=O)Oc1ccccc1C(=O)Nc1ccc(C(=O)/C=C/c2ccncc2)cc1")
"active"
>>> category_label("CCOC(=O)c1c(Nc2ccccc2)nn2c(N)c(C#N)c(-c3ccc(Cl)cc3)nc12")
"inactive"
>>> category_label("COc1cc(OC)c(C2C(Cl)C(=O)N2Nc2ncnc3ccccc23)cc1OC (configuration not stated)")
"inactive"
>>> category_label("COc1cccc(COc2ccc(/C=C3/C(=O)Nc4cc(Cl)ccc43)cc2)c1")
"inactive"
>>> category_label("O=C(N/N=C/c1ccc[nH]1)c1[nH]c2ccc(Br)cc2c1-c1ccccc1")
"inactive"
>>> category_label("[Cl][Ru].c1ccc(-c2cccc(-c3ccccn3)n2)nc1.c1ccc(-c2ccnc3c2ccc2c(-c4ccccc4)ccnc23)cc1")
"inactive"
>>> category_label("COc1cc(/C=C/C(=O)c2ccc(Cl)cc2)ccc1Oc1nc(NCCO)nc(N2CCOCC2)n1")
"inactive"
>>> category_label("O=C(Oc1ccc2ccc(=O)oc2c1)c1ccc(Cl)cc1")
"inactive"
>>> category_label("CN1CCN(Cc2ccc(NC(=O)c3cncc(C#Cc4cnc5ccc(N6CCSCC6)nn45)c3)cc2C(F)(F)F)CC1")
"active"
>>> category_label("COc1ccc(NC(=O)c2sc3nc(-c4cnccn4)cc(-c4cccs4)c3c2N)cc1")
"active"
>>> category_label("COc1ccccc1/C=C/C=N/NC1=NC2C(S1)N(C)C(=O)N2C (configuration not stated)")
"active"
>>> category_label("NS(=O)(=O)c1cccc(Nc2nc(SCC(=O)c3ccc(Cl)cc3)nc3ccccc23)c1")
"inactive"
>>> category_label("CCCC(=O)NC(c1ccc2c(c1)OC(F)(F)O2)c1cc(C)c2cccnc2c1O (configuration not stated)")
"active"
>>> category_label("O=C(N/N=C/c1ccc([N+](=O)[O-])s1)c1[nH]c2ccc(Br)cc2c1-c1ccccc1")
"active"
>>> category_label("COc1ccc(Cc2nn(CC(=O)N/N=C/c3ccc(Cl)cc3)c(=O)c3c(C)noc23)cc1")
"inactive"
